- system: UniProt P11712
- Sequence (P11712 whole entry): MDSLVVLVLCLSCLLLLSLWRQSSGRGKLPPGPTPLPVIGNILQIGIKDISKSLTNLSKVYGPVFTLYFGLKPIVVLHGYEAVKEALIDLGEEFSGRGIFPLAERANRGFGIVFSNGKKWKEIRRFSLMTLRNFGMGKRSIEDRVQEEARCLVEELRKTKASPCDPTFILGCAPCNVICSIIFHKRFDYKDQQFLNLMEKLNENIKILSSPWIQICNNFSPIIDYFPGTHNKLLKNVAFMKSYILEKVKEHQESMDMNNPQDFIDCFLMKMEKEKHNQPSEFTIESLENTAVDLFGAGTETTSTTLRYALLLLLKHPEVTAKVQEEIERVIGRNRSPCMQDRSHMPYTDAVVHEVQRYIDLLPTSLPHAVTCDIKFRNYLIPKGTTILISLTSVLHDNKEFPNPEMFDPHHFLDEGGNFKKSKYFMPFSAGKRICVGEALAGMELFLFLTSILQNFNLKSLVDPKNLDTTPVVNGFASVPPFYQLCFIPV
- experiment: Inhibition of human recombinant CYP2C9
pIC50: −log10 of the molar value.
quantity_kind: pIC50

Q: Can you look up pIC50 on UniProt P11712 for CC(C)CCOc1ccc2c(c1)[C@H]1OCCC[C@H]1[C@@H](C1CCOCC1)N2 ?
Ans: < 5.30

----------
Could you please report measured solubility kinetic for the items listed next?
- experiment: Kinetic solubility of the compound
- Assay type: physicochemical
- conditions: read-out: Kinetic_solubility

Q: Returns the measured solubility kinetic for the input compound. Input: CC(C)CCOc1ccc2c(c1)[C@H]1OCCC[C@H]1[C@@H](C1CCCCC1)N2
Ans: < 1 µM

Q: I'd like to know its solubility kinetic. The compound in question is CCCCCc1ccc2c(c1)[C@H]1OCCC[C@H]1[C@@H](C1CCCCC1)N2
Ans: < 1 µM

Q: // query solubility kinetic value for entry Clc1ccc(Oc2ccc3c(c2)[C@H]2OCCC[C@H]2[C@@H](C2CCCCC2)N3)cc1 (racemic)
Ans: < 0.4 µM

Q: Item under review: CC(C)CCOc1ccc2c(c1)[C@H]1OCCC[C@H]1[C@@H](C1CCN(Cc3ccccc3)CC1)N2 (racemic) . Reported solubility kinetic?
Ans: < 1 µM

Source: ChEMBL document CHEMBL2331108
